Data origin, for the record: the supplement of paper PMC10065799

Tested on: AncSZ;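 further: 11-residue human phosphosite peptides and single-mutation variants displayed on the E. coli surface, counted by deep sequencing, each peptide's frequency after selection divided by its frequency in the unselected input library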;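 further: frequency after pTyr selection over input frequency; kinase dosed for 20-30% of maximal phosphorylation in three min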
Experiment: phosphorylation enrichment, bacterial display (enrichment ratio); higher = better substrate or ligand; peptides without Tyr show the background
assay-readout: phosphorylation enrichment

| chain-sequence | numeric-result |
| --- | --- |
| IVAREYFSDAD [CAMK2A_Y106_E109D_YF] | 0.744 |
| ESLSSYRESAK [APOC2_Y47_W48R] | 0.63 |
| YPQARYHWLVL [APTX_Y214_K211Q] | 0.937 |
| WFISFYPQVIM [CTNS_Y143_S139F] | 1.22 |
| AIMSFYATLID [RYR1_Y2426_A2428T] | 1.31 |
| STEEQYRIRQV [EFHC1_Y115] | 0.718 |
| ATDLAYYLVRK [ASL_Y375] | 1.63 |
| AVISVYDLVAV [PSEN1_Y256] | 1.24 |
| LASSEYPVRRR [GALK1_Y236] | 0.62 |
| IKIMGSSIRTI [IDS_Y490_Y490S] | 0.557 |
| LITSVYGCSRQ [TMPRSS6_Y290] | 1.39 |
| TPGPNYRPGFN [USH2A_Y463_YF] | 0.707 |
| EADRKYEEVAC [TPM3_Y163_R168C] | 1.17 |
| LVKDPYVMFPQ [PLEKHG2_Y489_P484L] | 1.45 |

----------
Here, each record is paired with measured SH2 binding enrichment data.
Target: c-Src SH2
Experiment: SH2 binding enrichment of the phosphorylated peptide, bacterial display (enrichment ratio); higher = better substrate or ligand; peptides without Tyr show the background

| chain-sequence | SH2 binding enrichment |
| --- | --- |
| WFISFYPQVIM [CTNS_Y143_S139F] | 0.444 |
| IRKKFYRAILE [CHD7_Y1218_Q1214R_YF] | 0.433 |
| FQKNVYSEELR [LMNA_Y211_I210V] | 0.566 |
| VQSASYLNDCL [MCM3AP_Y864_A867D] | 0.572 |
| HLRAGYIIPLQ [GAA_Y822] | 1.66 |
| EKQVAYCPSGK [ROS1_Y2323] | 0.464 |
| KKLAEYGPQGK [CLCA1_Y147_R152K] | 0.491 |
| KSVITYSPTTG [ITGB3BP_Y32] | 0.507 |
| LAAAGYDVEKN [H1-3_Y72] | 0.484 |
| SDPIIYTLENV [ADGRE1_Y534_I539V] | 0.554 |
| CTTIRYNFMCN [TP53_Y234_H233R_YF] | 1.65 |
| IVAREYYSDAD [CAMK2A_Y106_E109D] | 3.1 |
| PQGVSYIYTID [DCX_Y103_R102S] | 0.644 |
| DNKALYDICFR [TUBB3_Y208_E205K] | 0.541 |

----------
Molecular target: Grb2 SH2 (UniProt P62993)
Sequence (P62993 whole entry, looked up): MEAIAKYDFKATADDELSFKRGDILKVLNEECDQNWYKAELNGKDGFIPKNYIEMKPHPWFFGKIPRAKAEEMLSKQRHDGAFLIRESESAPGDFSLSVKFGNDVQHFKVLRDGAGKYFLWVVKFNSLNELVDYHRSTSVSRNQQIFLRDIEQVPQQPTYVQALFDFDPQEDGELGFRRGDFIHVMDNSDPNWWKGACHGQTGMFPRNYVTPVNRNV
Test: SH2 binding enrichment of the phosphorylated peptide, bacterial display (enrichment ratio); higher = better substrate or ligand; peptides without Tyr show the background
Here, each record is paired with measured SH2 binding enrichment data.

| chain-sequence | SH2 binding enrichment |
| --- | --- |
| SKLTIYDARPS [MTM1_Y277] | 0.792 |
| EIPTQYEAMAS [GFAP_Y242_R239P] | 0.674 |
| QGLRLYRPHLA [BTK_Y617] | 1.4 |
| QFKDKYLAKHN [CASK_Y712_YF] | 0.83 |
| LEGKEYRMSGE [KRT3_Y511_E509K] | 0.85 |
| DPADRYLTEQY [CDKL5_Y286_C291Y] | 1 |
| ALAAPYVLFPS [CEFIP_Y1332_G1337S_YF] | 0.968 |
| QEMMEYRHQIQ [DES_Y324] | 1.22 |
| DRPASYLDKVR [KRT17_Y98_L95P] | 0.828 |
| MCDSHYLESRS [CLK1_Y56] | 1.04 |
| LWPIWYSCHRP [MRGPRX1_Y130_R131S] | 0.924 |
| MSNFAYVKREV [SCN1A_Y1694] | 0.797 |
| RRIEKYVDQGK [IRAK3_Y61_H57R] | 0.72 |
| SNSAAYSGSVA [PDLIM5_Y382_T381A] | 0.774 |
| ISSLRYELLEE [TRPC6_Y896] | 0.832 |
| PQGVSYIYTID [DCX_Y103_R102S] | 1.05 |
| MEYLPYGSLRD [JAK2_Y934] | 0.723 |
| PEVRRCVLPLN [RPE65_Y368_Y368C] | 0.926 |
| PSNTEYPGPHS [TP63_Y171_D170E] | 1.48 |
| GRFSGYKSKHG [EPHA3_Y570_C568S] | 0.857 |
| FGLPRYRWLTH [TSPAN12_Y143_YF] | 0.584 |
| DEEYEYMNRRR [ERBB3_Y1199] | 0.837 |
| LEAVSYSSRYA [RNLS_Y190] | 0.772 |
| SPGGDYAAMGA [ERBB3_Y1276_G1271S] | 0.749 |
| ILDEAYVMASV [EGFR_Y764] | 0.708 |
| AGIVDYNIIGW [MYH7_Y588] | 0.562 |
| NIEPIYLNMLL [ATR_Y317_V316I] | 0.705 |
| VVLEDYLDIKN [CLCNKB_Y138] | 0.747 |
| CGTPDYIDPEI [PRKCG_Y521_A523D] | 0.814 |
